Tested on: BGC-823
Assay method text: Cytotoxicity against human BGC823 cells by MTT assay
Assay type: functional, cell-based
pIC50: −log10 of the molar value.
Quick list: pIC50 per entry.
Assay endpoint: pIC50

| Compound | Reported value |
| --- | --- |
| C/C=C(/C)C(=O)O[C@@H]1[C@@H](O)[C@H](O[C@H]2[C@H](O)[C@]3(COC(C)=O)[C@H](O)C[C@]4(C)C(=CC[C@@H]5[C@@]6(C)CC[C@H](O[C@@H]7O[C@H](C(=O)O)[C@@H](O)[C@H](O)[C@H]7O[C@@H]7O[C@H](CO)[C@@H](O)[C@H](O)[C@H]7O)[C@](C)(CO)[C@@H]6CC[C@]54C)[C@@H]3CC2(C)C)O[C@H](C)[C@@H]1OC(C)=O | 4.08 |
| CC1(C)C[C@H]2C3=CC[C@@H]4[C@@]5(C)CC[C@H](O[C@@H]6O[C@H](CO[C@@H]7O[C@H](CO)[C@@H](O)[C@H](O)[C@H]7O)[C@@H](O)[C@H](O)[C@H]6O[C@@H]6O[C@H](CO)[C@@H](O)[C@H](O)[C@H]6O)C(C)(C)[C@@H]5CC[C@@]4(C)[C@]3(C)CC(=O)[C@@]2(CO[C@@H]2O[C@H](CO[C@@H]3O[C@H](CO)[C@@H](O)[C@H](O)[C@H]3O)[C@@H](O)[C@H](O)[C@H]2O)[C@@H](O)[C@@H]1O [SORBIFOLIASIDE C] | < 4.00 |
| C[C@@H]1O[C@@H](O[C@H]2[C@H](OC[C@@]34CC[C@]5(C)C(=CC[C@@H]6[C@@]7(C)CC[C@H](O[C@@H]8O[C@H](CO[C@@H]9O[C@H](CO)[C@@H](O)[C@H](O)[C@H]9O)[C@@H](O)[C@H](O)[C@H]8O)C(C)(C)[C@@H]7CC[C@]65C)[C@@H]3CC(C)(C)[C@@H](O)[C@@H]4O)O[C@H](CO[C@@H]3O[C@H](CO)[C@@H](O)[C@H](O)[C@H]3O)[C@@H](O)[C@@H]2O)[C@H](O)[C@H](O)[C@H]1O | < 4.00 |
| O=c1[nH]cc(F)c(=O)[nH]1 | 4.81 |
| C/C=C(/C)C(=O)O[C@@H]1[C@@H](O)[C@H](O[C@H]2CC[C@]3(C)[C@H]4CC=C5[C@@H]6CC(C)(C)[C@@H](O)[C@H](O)[C@]6(CO[C@@H]6O[C@H](CO[C@@H]7O[C@H](CO)[C@@H](O)[C@H](O)[C@H]7O)[C@@H](O)[C@H](O)[C@H]6O)CC[C@@]5(C)[C@]4(C)CC[C@H]3C2(C)C)O[C@H](CO[C@@H]2O[C@H](CO)[C@@H](O)[C@H](O)[C@H]2O)[C@H]1O [SORBIFOLIASIDE D] | < 4.00 |
| CC1(C)C[C@H]2C3=CC[C@@H]4[C@@]5(C)CC[C@H](O[C@@H]6O[C@H](CO[C@@H]7O[C@H](CO)[C@@H](O)[C@H](O)[C@H]7O)[C@@H](O)[C@H](O)[C@H]6O)C(C)(C)[C@@H]5CC[C@@]4(C)[C@]3(C)CC(=O)[C@@]2(CO[C@@H]2O[C@H](CO[C@@H]3O[C@H](CO)[C@@H](O)[C@H](O)[C@H]3O)[C@@H](O)[C@H](O)[C@H]2O[C@@H]2O[C@H](CO)[C@@H](O)[C@H](O)[C@H]2O)[C@@H](O)[C@@H]1O [SORBIFOLIASIDE B] | < 4.00 |
